tested.target: human muscarinic M2 receptor (Homo sapiens, UniProt P08172)
Sequence (P08172 whole entry): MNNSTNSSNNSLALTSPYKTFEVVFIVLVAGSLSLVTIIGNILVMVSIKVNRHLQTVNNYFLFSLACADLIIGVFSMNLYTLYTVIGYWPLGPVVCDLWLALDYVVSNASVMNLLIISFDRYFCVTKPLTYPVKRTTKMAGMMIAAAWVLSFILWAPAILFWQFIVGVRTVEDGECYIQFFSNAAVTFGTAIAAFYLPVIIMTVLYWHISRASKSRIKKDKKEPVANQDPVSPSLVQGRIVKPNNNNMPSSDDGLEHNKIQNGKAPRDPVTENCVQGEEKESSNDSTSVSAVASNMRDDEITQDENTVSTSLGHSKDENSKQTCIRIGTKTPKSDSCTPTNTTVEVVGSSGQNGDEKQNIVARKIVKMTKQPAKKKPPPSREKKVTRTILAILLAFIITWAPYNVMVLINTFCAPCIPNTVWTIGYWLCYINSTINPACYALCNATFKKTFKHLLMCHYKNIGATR
assay: Phospho-ERK1/2 assay, muscarinic M2
Format: cell-based
conditions: CHO, read-out: % Emax cf. ACh (M2)
Method: Functional assays were performed using the Alphascreen Surefire phospho-ERK1/2 assay (Crouch & Osmond, Comb. Chem. High Throughput Screen, 2008). […] Plates were incubated for 2 h with gentle agitation in the dark and then read on a PHERAstar plate reader. pEC50 and Emax figures were calculated from the resulting data for each receptor subtype.
observation.type: Emax (%)

1: CCOC(=O)N1CCCC(N2CCC(OC)(C(=O)NC3(C)CCC3)CC2)CC1 (stereo not drawn) [Example 79]
2: CCOC(=O)N1CCC[C@@H](N2CCC(C(=O)NC3(C)CCC3)CC2)CC1 [Example 66]
Qu. # min-compare on Emax between 1 and 2 Your answer should be the label of the entry you select.
Ans. 1

P: CCOC(=O)N1CCCC(N2CCC(C(=O)NCC3(C)CCCC3)CC2)CC1 (stereo not drawn) [Example 18]
Q: CCOC(=O)N1CCCC(N2CCC(C(=O)NCC3(C)CCC3)CC2)CC1 (stereo not drawn) [Example 69]
Qu. So which one has the bigger Emax here, P or Q ? Your answer should be the label of the entry you select.
Ans. Q

A: CCOC(=O)N1CCC[C@@H](N2CCC(C(=O)NCC(C)C)CC2)CC1 [Example 64]
B: CCOC(=O)N1CCCC(N2CCC(C(=O)NCC3(CC)CCC3)CC2)CC1 (stereo not drawn) [Example 37]
Qu. # min-compare on Emax between A and B Your answer should be the label of the entry you select.
Ans. A

----------
tested.target: human muscarinic M1 receptor (Homo sapiens, UniProt P11229)
assay: Phospho-ERK1/2 assay, muscarinic M1
Type: cell-based
conditions: CHO, read-out: % Emax cf. ACh (M1)
observation.type: Emax (%)

[
  {
    "compound": "CCOC(=O)N1CCC(N2CCC(C(=O)NC(C)(C)C(C)C)CC2)CC1",
    "tested.target": "human muscarinic M1 receptor (Homo sapiens, UniProt P11229)",
    "value.unit": "%",
    "assay.value": 116
  },
  {
    "compound": "CCOC(=O)N1CCC[C@@H](N2CCC(C(=O)NCC(C)C)CC2)CC1",
    "tested.target": "human muscarinic M1 receptor (Homo sapiens, UniProt P11229)",
    "value.unit": "%",
    "assay.value": 104
  },
  {
    "compound": "CCOC(=O)N1CCCC(N2CCC(C)(C(=O)NC3(C)CCC3)CC2)CC1 (stereo not drawn)",
    "tested.target": "human muscarinic M1 receptor (Homo sapiens, UniProt P11229)",
    "value.unit": "%",
    "assay.value": 115
  },
  {
    "compound": "CCOC(=O)N1CCC[C@@H](N2CCC(C(=O)NC(C)(C)C)CC2)CC1",
    "tested.target": "human muscarinic M1 receptor (Homo sapiens, UniProt P11229)",
    "value.unit": "%",
    "assay.value": 94
  },
  {
    "compound": "CCOC(=O)N1CCCC(N2CCC(C(=O)NC3(C)CCCCC3)CC2)CC1 (stereo not drawn)",
    "tested.target": "human muscarinic M1 receptor (Homo sapiens, UniProt P11229)",
    "value.unit": "%",
    "assay.value": 104
  },
  {
    "compound": "CCOC(=O)N1CCCC(N2CCC(C(=O)NCC3(C)CCC3)CC2)CC1 (stereo not drawn)",
    "tested.target": "human muscarinic M1 receptor (Homo sapiens, UniProt P11229)",
    "value.unit": "%",
    "assay.value": 120
  },
  {
    "compound": "CCOC(=O)N1CCCC(N2CCC(F)(C(=O)NC3CCCC3)CC2)CC1 (stereo not drawn)",
    "tested.target": "human muscarinic M1 receptor (Homo sapiens, UniProt P11229)",
    "value.unit": "%",
    "assay.value": 107
  },
  {
    "compound": "CCOC(=O)N1CCCC(N2CCC(F)(C(=O)NC(C)(C)C(C)C)CC2)CC1 (stereo not drawn)",
    "tested.target": "human muscarinic M1 receptor (Homo sapiens, UniProt P11229)",
    "value.unit": "%",
    "assay.value": 104
  },
  {
    "compound": "CCOC(=O)N1CCCC(N2CCC(F)(C(=O)NCC(C)(C)C)CC2)CC1 (stereo not drawn)",
    "tested.target": "human muscarinic M1 receptor (Homo sapiens, UniProt P11229)",
    "value.unit": "%",
    "assay.value": 90
  }
]

----------
tested.target: human muscarinic M1 receptor (Homo sapiens)
Sequence (P11229 1-460): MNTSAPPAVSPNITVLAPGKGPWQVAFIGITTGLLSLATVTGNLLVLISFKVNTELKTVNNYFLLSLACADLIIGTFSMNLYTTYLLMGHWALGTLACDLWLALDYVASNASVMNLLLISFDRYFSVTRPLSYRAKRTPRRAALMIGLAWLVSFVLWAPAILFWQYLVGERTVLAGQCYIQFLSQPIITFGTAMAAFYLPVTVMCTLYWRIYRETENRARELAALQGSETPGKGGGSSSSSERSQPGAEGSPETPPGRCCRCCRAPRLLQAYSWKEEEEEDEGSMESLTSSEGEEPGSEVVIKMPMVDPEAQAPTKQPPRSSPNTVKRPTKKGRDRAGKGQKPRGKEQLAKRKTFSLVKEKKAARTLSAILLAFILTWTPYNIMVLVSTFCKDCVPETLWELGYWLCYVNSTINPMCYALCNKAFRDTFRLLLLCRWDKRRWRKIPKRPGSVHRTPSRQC
assay: Phospho-ERK1/2 assay, muscarinic M1
Assay type: cell-based
conditions: CHO, read-out: % Emax cf. ACh (M1)
observation.type: Emax (%)

[
  {
    "compound": "CCOC(=O)N1CCCC(N2CCC(F)(C(=O)NC3(C)CCCC3)CC2)CC1 (stereo not drawn) [Example 48]",
    "observation.type": "Emax",
    "value.unit": "%",
    "assay.value": 88
  },
  {
    "compound": "CCOC(=O)N1CCCC(N2CCC(C(=O)NCC3CCC3)CC2)CC1 (stereo not drawn) [Example 11]",
    "observation.type": "Emax",
    "value.unit": "%",
    "assay.value": 117
  },
  {
    "compound": "CCOC(=O)N1CCCC(N2CCC(OC)(C(=O)NC3(C)CCC3)CC2)CC1 (stereo not drawn) [Example 79]",
    "observation.type": "Emax",
    "value.unit": "%",
    "assay.value": 113
  },
  {
    "compound": "CCOC(=O)N1CCCC(N2CCC(C(=O)NC3CCCC3)CC2)CC1 (stereo not drawn) [Example 30]",
    "observation.type": "Emax",
    "value.unit": "%",
    "assay.value": 132
  },
  {
    "compound": "CCOC(=O)N1CCCC(N2CCC(C(=O)NC3(CC)CCC3)CC2)CC1 (stereo not drawn) [Example 74]",
    "observation.type": "Emax",
    "value.unit": "%",
    "assay.value": 132
  },
  {
    "compound": "CCOC(=O)N1CCC[C@@H](N2CCC(C(=O)NC3(C)CCC3)CC2)CC1 [Example 66]",
    "observation.type": "Emax",
    "value.unit": "%",
    "assay.value": 94
  },
  {
    "compound": "CCOC(=O)N1CCCC(N2CCC(C#N)(C(=O)NC3(C)CCC3)CC2)CC1 (stereo not drawn) [Example 82]",
    "observation.type": "Emax",
    "value.unit": "%",
    "assay.value": 89
  },
  {
    "compound": "CCOC(=O)N1CCCC(N2CCC(C(=O)NC3(C(F)(F)F)CCC3)CC2)CC1 (stereo not drawn) [Example 70]",
    "observation.type": "Emax",
    "value.unit": "%",
    "assay.value": 107
  },
  {
    "compound": "CCOC(=O)N1CCCC(N2CCC(F)(C(=O)NC3(C)CCC3)CC2)CC1 (stereo not drawn) [Example 50]",
    "observation.type": "Emax",
    "value.unit": "%",
    "assay.value": 102
  }
]

----------
tested.target: human muscarinic M1 receptor (Homo sapiens, UniProt P11229)
Sequence (P11229 1-460): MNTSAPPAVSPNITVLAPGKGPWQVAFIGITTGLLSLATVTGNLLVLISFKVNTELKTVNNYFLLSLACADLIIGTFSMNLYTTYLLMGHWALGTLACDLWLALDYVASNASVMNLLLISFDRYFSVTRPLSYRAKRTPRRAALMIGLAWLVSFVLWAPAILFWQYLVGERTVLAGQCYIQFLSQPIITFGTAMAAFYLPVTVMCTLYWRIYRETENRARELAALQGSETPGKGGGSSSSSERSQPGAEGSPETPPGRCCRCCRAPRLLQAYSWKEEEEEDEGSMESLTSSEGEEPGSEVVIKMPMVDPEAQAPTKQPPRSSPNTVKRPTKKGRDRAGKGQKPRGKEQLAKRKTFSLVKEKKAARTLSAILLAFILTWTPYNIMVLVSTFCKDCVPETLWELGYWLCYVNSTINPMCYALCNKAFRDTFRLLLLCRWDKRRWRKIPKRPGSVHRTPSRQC
assay: Phospho-ERK1/2 assay, muscarinic M1
Assay type: cell-based
conditions: CHO, read-out: % Emax cf. ACh (M1)
observation.type: Emax (%)

[
  {
    "compound": "CCOC(=O)N1CCCC(N2CCC(C(=O)NCC(C)C)CC2)CC1 (centres unmarked) [Example 6]",
    "Emax, %": 113
  },
  {
    "compound": "CCOC(=O)N1CCCC(N2CCC(C(=O)NCC3(CC)CCC3)CC2)CC1 (centres unmarked) [Example 37]",
    "Emax, %": 87
  },
  {
    "compound": "CCOC(=O)N1CCCC(N2CCC(F)(C(=O)NCC3CC3)CC2)CC1 (centres unmarked) [Example 52]",
    "Emax, %": 95
  },
  {
    "compound": "C#CCOC(=O)N1CCCC(N2CCC(C(=O)NCC(C)C)CC2)CC1 (centres unmarked) [Example 57]",
    "Emax, %": 93
  },
  {
    "compound": "[2H]C([2H])([2H])C([2H])(C([2H])([2H])[2H])C([2H])([2H])NC(=O)C1CCN(C2CCCN(C(=O)OCC)CC2)CC1 (centres unmarked) [Example 75]",
    "Emax, %": 102
  },
  {
    "compound": "CC#CCOC(=O)N1CCCC(N2CCC(OC)(C(=O)NC3(C)CCC3)CC2)CC1 (centres unmarked) [Example 80]",
    "Emax, %": 89
  },
  {
    "compound": "CCOC(=O)N1CCCC(N2CCC(C(=O)NC(C)(C)C(C)C)CC2)CC1 (centres unmarked) [Example 31]",
    "Emax, %": 122
  },
  {
    "compound": "CCOC(=O)N1CCC[C@H](N2CCC(C(=O)NC(C)(C)C)CC2)CC1 [Example 67]",
    "Emax, %": 114
  }
]
